- TARGET OF ASSAY: UniProt P07477
- Sequence (P07477 whole entry): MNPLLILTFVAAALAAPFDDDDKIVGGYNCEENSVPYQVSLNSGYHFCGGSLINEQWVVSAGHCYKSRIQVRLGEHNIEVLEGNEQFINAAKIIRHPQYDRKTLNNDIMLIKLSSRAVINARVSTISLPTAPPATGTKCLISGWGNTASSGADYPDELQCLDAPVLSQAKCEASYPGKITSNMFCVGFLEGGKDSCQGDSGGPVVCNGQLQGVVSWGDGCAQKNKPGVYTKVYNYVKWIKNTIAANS
MEASUREMENT LABEL: IC50 (nM)
Numbers only; they are read as nM.

Query: Please respond with reported IC50 (system UniProt P07477) for "N=C(N)NCCC[C@H](NC(=O)[C@@H]1CC[C@H]2CN(C(=O)CCc3ccccc3)CC(=O)N21)C(=O)c1nccs1" .
Response: 1
